Values compiled from paper PMC2410175.

testName: clinical
conditions: human, in vivo, 10 mg, Tmax
parameterMeasured: Tmax (min)
Answers are plain numbers, in min.

Just so you know, measured Tmax for "CO[C@H](C(=O)NO)[C@@H](CC(C)C)C(=O)N[C@H](C(=O)Nc1ccccn1)C(C)(C)C" came out at 30

###

testName: clinical
conditions: human, in vivo, 10 mg, Cmax
Experimental: Blood samples were collected in heparinised tubes before treatment, every 15 min for 2 h, at 2 h 30 min, 3, 4, 6, 8, 10 and 24 h on days 1 and 14 for the measurement of BB-3644. Blood samples were kept on ice. […] Samples were analysed centrally in the Department of Drug Metabolism and Pharmacokinetics at British Biotech, UK. Samples were analysed for BB-3644 content using a validated reverse-phase HPLC method with mass spectrometric detection. The limit of quantification was 1 ng ml^−1. […]
parameterMeasured: Cmax (ng/mL)
Numbers only, in ng/mL.

The molecule identified as "CO[C@H](C(=O)NO)[C@@H](CC(C)C)C(=O)N[C@H](C(=O)Nc1ccccn1)C(C)(C)C" registered its Cmax at 114

###

testName: clinical
conditions: human, in vivo, 10 mg, T1/2
parameterMeasured: half-life

Sample "CO[C@H](C(=O)NO)[C@@H](CC(C)C)C(=O)N[C@H](C(=O)Nc1ccccn1)C(C)(C)C" ; half-life observed: 1.5 h

###

testName: clinical
conditions: human, in vivo, 20 mg, Tmax
parameterMeasured: Tmax (min)
Answers are plain numbers, in min.

Measured Tmax of "CO[C@H](C(=O)NO)[C@@H](CC(C)C)C(=O)N[C@H](C(=O)Nc1ccccn1)C(C)(C)C" : 30

###

testName: clinical
conditions: human, in vivo, 20 mg, T1/2
parameterMeasured: half-life (h)
Numbers only, in h.

Reported half-life ( CO[C@H](C(=O)NO)[C@@H](CC(C)C)C(=O)N[C@H](C(=O)Nc1ccccn1)C(C)(C)C [BB-3644] ) = 1.5

###

testName: clinical
conditions: human, in vivo, 30 mg, AUC0–24
parameterMeasured: AUC(0-t) (ng·h/mL)
Give bare numbers, in ng·h/mL.

Looking up "CO[C@H](C(=O)NO)[C@@H](CC(C)C)C(=O)N[C@H](C(=O)Nc1ccccn1)C(C)(C)C" , I see its AUC(0-t) listed as 2520

###

testName: clinical
conditions: human, in vivo, 5 mg, Tmax
parameterMeasured: Tmax (min)
One number for each entry, in min.

Tmax in this record for CO[C@H](C(=O)NO)[C@@H](CC(C)C)C(=O)N[C@H](C(=O)Nc1ccccn1)C(C)(C)C [BB-3644] : 45
